test: folding stability dG unfold (combined trypsin and chymotrypsin); higher = more stable
Measured folding stability dG unfold accompanies every entry in the list below.
I only need the number, in kcal/mol, no unit after it.

# count of solved cases: 3
Consider SAGGSAGGSAGKKTVVIKDAEIVEVEEENGYLKVRIKVTNPDGSEEEFTFTFKPGDVIELSAGGSAGGSAGG [r11_211_TrROS_Hall] . Its measured folding stability dG unfold is 2.71

Consider SAGMKVIEIDVPVSKIEEVKEELEAEAKEKGLNIKFEKLEKLPGNKYKMIVTVTDPTSNEKTIYNINILSAG [r5_41_JUSTAS] . Its measured folding stability dG unfold is 4.06

Consider SAGKITITVEKNEDGELTVTIRIEKDGKPIEEITFESEEEALEAAKKLAEELKKKYPDLKIEVEIVPRPSAG [r5_383_TrROS_Hall] . Its measured folding stability dG unfold is 3.53

New cases:
Consider SAGGSAIDPRLLKLPKVKVEILSVEPVTGEDDKPFFVAKVKTDLEPGFYAYIILDPETGKIVKVFDSAGGSA [r15_66_TrMRF] . Its measured folding stability dG unfold is 1.4

----------
experiment: folding stability dG unfold from chymotrypsin proteolysis; higher = more stable
Measured folding stability dG unfold accompanies every entry in the list below.

# count of solved cases: 3
Consider SAGGSAGGSAGELTVTVTVLLEDGTAVKIEARFELDENGNLHLEVKVEVVKLPELSPEDLSAGGSAGGSAGG [r11_728_TrROS_Hall] . Its measured folding stability dG unfold is 2.25 kcal/mol

Consider SAGGSAGGSAGGSAKIDLPFPAEITEIRPRPDGSVEIRLSFPTYTVTAIIPPNGIKIYGSAGGSAGGSAGGS [r4_280_TrMRF] . Its measured folding stability dG unfold is -0.0211 kcal/mol

Consider SAGGSAGGSKNGEPPPVPTITMRFKDPDKIRKLNKKAGLPIEHDPGNGYITFPYRQIDKILKASAGGSAGGS [r12_325_TrROS] . Its measured folding stability dG unfold is 5.86 kcal/mol

In the following, a different sequence is considered.
Consider SAGGSAGGDALKELIKNMPPGEPRKITIPIKYEDGRYYRIDIEIQMNPNNGEWQLDIDIEPYPPSAGGSAGG [r6_545_TrROS] . Its measured folding stability dG unfold is 2.46 kcal/mol

----------
Measured folding stability dG unfold accompanies every entry in the list below.
test: folding stability dG unfold from trypsin proteolysis; higher = more stable
I only need the number, in kcal/mol, no unit after it.

# count of solved cases: 5
Consider SAGGKKFYVEVKINLKDKTIYLIKEVKPGNLEKLIKEIEKKGIKEAGIDEIKIFPKDGYIEIKGGEKSAGGS [r8_219_TrMRF] . Its measured folding stability dG unfold is 0.279

Consider SPKELEFKHPDNGMEVKIRLDPNQGRIEIEVRPPNGPPVKMDMEVTDDRIKIDIYYPGGRPMMQLEFPLPSA [r9_665_TrROS] . Its measured folding stability dG unfold is 2.92

Consider SAEKKTVRVVLEITLPPGLKPGDTITVKIEVDGKVYEAKILRVEEVPPGQTVRIVLELPAEDVKITIEPSAG [r14_554_TrROS_Hall] . Its measured folding stability dG unfold is 3.21

Consider SAGGSAGGSPLDIEIKMEFHPDHGYWEMEIKIPGNGREINIHYQYEGGKPQITSPEQILDAIKSAGGSAGGS [r20_131_TrROS] . Its measured folding stability dG unfold is 0.622

Consider SAGGSAGGMIVTTTFLPGNLKVVNVTTTYETTDPSGTTTSTTTTSTTIEYIPPVPVDINNPLLISAGGSAGG [r6_920_JUSTAS] . Its measured folding stability dG unfold is 1.41

New cases:
Consider SAGAVRPDEPVTVTVTVEVDPETGFVRVTFDAAAPDGITVEALIPPDGPVLVRVRRPGSRETVEVVLPASAG [r5_55_TrMRF] . Its measured folding stability dG unfold is 2.57

Consider SNPWVEITIYFPMRPDPNGKMQPLSPSELLEELLKQGFPIKDIDIDEVTDNYIPITIRIDAKDGKIEIEWSA [r9_225_TrROS] . Its measured folding stability dG unfold is 2.12

Consider SAGGGGSTPVSSYSYPLPDGSTATITISSKNPDSDIYSFTVTLSDGTTVPLDVPLSESVEEAIARVLTSAGG [r13_470_JUSTAS] . Its measured folding stability dG unfold is 2.31

Consider SAGMMKVKIELTIVVETKEEAEKLAEELKKALEELGIKEVKVTVEYDKETKKVTVTVEIEIELEPELLSAGG [r19_92_TrROS_Hall] . Its measured folding stability dG unfold is 2.18

Consider SANMDMPPGFKPIARDDDITIWQNPNPVYIMIRGPDGKHKMLPFNPGDPEKIKDLIREFADDGITDIMISAG [r14_12_TrROS] . Its measured folding stability dG unfold is 1.43

Consider SAGGSAGGSAGNPPNKPKPIIKVVPFRYRFYIPETGSVIEIDIYVFEDDTVKIKIKTYPLSAGGSAGGSAGG [r11_883_TrMRF] . Its measured folding stability dG unfold is 3.73

Consider SAGGVTVSLSDPLSGNITTVPVAPNSTVTVTTSASLGGPNYTITTTVTVTLNGSTPVFTITSTVTPLSSAGG [r19_331_JUSTAS] . Its measured folding stability dG unfold is 3.08

Consider SLDKARDILREHGMEPTSIDVVEDGWVKVTWEYPGNKVEIFIPEDGNIMIEFRNPNNGQRVERTIPVDDVSA [r9_2_TrROS] . Its measured folding stability dG unfold is -0.489

Consider SAGEIAEYIAEYLAQEPGFQDVEVNIKITDIEPPPNGYMYHKIDIHVRVRNPDDGKPREVNFDITFPMPSAG [r5_176_TrROS] . Its measured folding stability dG unfold is 1.1
